# System: rabbit platelet-rich plasma (collagen-induced platelet aggregation)
# PROTOCOL_TEXT: Inhibition of collagen-induced platelet aggregation in rabbit platelet-rich plasma
# Assay type: cell-based
# TEST_PARAMETERS: Oryctolagus cuniculus, Platelet, 0.05 h, compound 10^-4 M; solvent PSS; 3 minute incubation
VALUE_TYPE: inhibition at 100 µM (%)
Your answer should be a plain number; it is taken to be in %.

Challenge: Given Nc1nc(SCCO)nc2c1ncn2[C@@H]1O[C@H](CO)[C@@H](O)[C@H]1O [2-(β-Hydroxyethyl)thioadenosine] , state its recorded inhibition at 100 µM.
Response given: 30

Challenge: Given CSc1nc(N)c2ncn([C@@H]3O[C@H](CO)[C@@H](O)[C@H]3O)c2n1 [2-Methylthioadenosine, reference compound] , state its recorded inhibition at 100 µM.
Response given: 25

Challenge: Given Nc1ncnc2c1ncn2[C@@H]1O[C@H](CO)[C@@H](O)[C@H]1O , state its recorded inhibition at 100 µM.
Response given: 71

Challenge: Given Nc1nc(S)nc2c1ncn2[C@@H]1O[C@H](CO)[C@@H](O)[C@H]1O , state its recorded inhibition at 100 µM.
Response given: 36

Challenge: Given Nc1nc(SCCCO)nc2c1ncn2[C@@H]1O[C@H](CO)[C@@H](O)[C@H]1O [2-(γ-Hydroxypropyl)thioadenosine] , state its recorded inhibition at 100 µM.
Response given: 52

----------
# PROTOCOL_TEXT: pKa
# Format: physicochemical
VALUE_TYPE: pKa
Please reply with the value in numeric form only.

Challenge: Given Nc1nc(S)nc2c1ncn2[C@@H]1O[C@H](CO)[C@@H](O)[C@H]1O , state its recorded pKa.
Response given: 7.8
